Below, each entry is listed alongside its reported growth.
# Tested on: HL-60(TB) leukemia
# ASSAY_TEXT: NCI-60 one-dose screen, 48 h (100 = growth as untreated, 0 = no growth, -100 = all killed)
# CONDITION_INFO: 10 µM unless noted
The panel holds about 83,000 compounds, 20% with a hit somewhere; the sample as a whole holds those more often.

| MOLECULE | TARGET_OR_SYSTEM | growth [%] |
| --- | --- | --- |
| O=S(=O)(O)c1cc(O)c2c(N=Nc3ccc(Nc4ccccc4)c4c(S(=O)(=O)O)cccc34)cc(S(=O)(=O)O)cc2c1 | HL-60(TB) leukemia | 82.7 |
| C=CCN=C1NC(=O)/C(=C/c2cc(C(C)(C)C)c(O)c(C(C)(C)C)c2)S1 | HL-60(TB) leukemia | 54.3 |
| CN(C)CCNc1nc2ccccc2c2c1c1c(n2Cc2ccccc2)-c2ccccc2C1=O | HL-60(TB) leukemia | -85 |
| COc1ccc(/C(=C2\O[C@@H]([C@H]3COC(C)(C)O3)[C@H]3OC(C)(C)O[C@@H]23)c2cc(OC)c(OC)c(OC)c2)cc1O | HL-60(TB) leukemia | 20.7 |
| CS(=O)(=O)c1ccc(NC(=O)c2ccccc2)nc1 | HL-60(TB) leukemia | 67.5 |
| C=C1CCC2C(C)(COC(=O)CC)C(OC(=O)CC)CCC2(C)C1C/C=C1/C(=O)OCC1OC(=O)CC (centres undefined) | HL-60(TB) leukemia | -43.8 |
| CC1(O)COCCCCOc2c(CN)cccc2NC(=O)c2nc(cnc2N)-c2ccc(cc2)S(=O)(=O)C(C)(C)C1 (centres undefined) | HL-60(TB) leukemia | -54.7 |
| Cn1cc(-c2ccc3c(Nc4cccc(NC(=O)Nc5cccc(F)c5)c4)ncnc3c2)cn1 | HL-60(TB) leukemia | 74.1 |
| Cc1cc(=O)n2n1-c1ccc(Cl)cc1NC(=O)C2 | HL-60(TB) leukemia | 101 |

---

Measured growth, listed per entry for reference.
# System: MALME-3M melanoma
# ASSAY_TEXT: NCI-60 one-dose screen, 48 h (100 = growth as untreated, 0 = no growth, -100 = all killed)
# CONDITION_INFO: 10 µM unless noted
The panel holds about 83,000 compounds, 20% with a hit somewhere; the sample as a whole holds those more often.

| COMPOUND | TARGET_OR_SYSTEM | growth (%) |
| --- | --- | --- |
| N#CC1c2ccccc2C=CN1C(=O)c1ccc(N(CCCl)CCCl)cc1 (centres undefined) | MALME-3M melanoma | 85.4 |
| C[CH2][Sn]([CH2]C)([CH2]C)[NH]S(=O)(=O)c1ccc(C)cc1 | MALME-3M melanoma | 110 |
| Cc1cc(NC(=O)/C=C/c2ccc([N+](=O)[O-])cc2)ccc1S(=O)(=O)F | MALME-3M melanoma | 103 |
| C/C(=C\C(=O)O[C@H]1[C@@H]2[C@H](C)CC[C@H]2[C@]2(C)O[C@@]1(C1CCCCC1)C[C@H]2OC(=O)CO)c1ccccc1 | MALME-3M melanoma | 64.4 |
| CC1(C)CC2(CC(C)(C)c3cc(O)c(O)cc32)c2cc(O)c(O)cc21 | MALME-3M melanoma | 101 |
| OC1(c2ccc(Cl)cc2Cl)c2ccccc2C2=NCCN21 (centres undefined) | MALME-3M melanoma | 100 |
| COc1cc(C2CC(=O)Nc3nc(N)[se]c32)c(OC)c2c1OCO2 (centres undefined) | MALME-3M melanoma | 102 |
| O=c1[nH]c2cc(Cl)ccc2n1C1CCN(CCCC(c2ccc(F)cc2)c2ccc(F)cc2)CC1 | MALME-3M melanoma | -1.17 |
| C[C@@H]1O[C@@H](O[C@H]2CC[C@@]3(C)[C@H](CCC4[C@@H]3C(O)C[C@]3(C)[C@@H](c5ccc(=O)oc5)CC[C@]43O)C2)[C@H](O)[C@H](O)[C@H]1O (some centres undefined) | MALME-3M melanoma | -45.9 |
| CN1CC2CCC(C1)C2=O | MALME-3M melanoma | 79.2 |
| CC(=O)O[C@H]1CCC2(C)C(=CCC3C2CCC2(C)/C(=N/OC(=O)c4ccc(N(CCCl)CCCl)cc4)CCC32)C1 (some centres undefined) | MALME-3M melanoma | 92.2 |
| CC[C@]12C=CCN3CC[C@@]4(c5ccc(OC)cc5N(C)[C@H]4[C@@](O)(C(=O)OC)[C@@H]1OC(=O)CCCN1CCN(CCCC(=O)O[C@@H]4[C@]5(CC)C=CCN6CC[C@@]7(c8ccc(OC)cc8N(C)[C@H]7[C@@]4(O)C(=O)OC)[C@@H]65)CC1)[C@@H]32 | MALME-3M melanoma | -90.7 |
| COc1ccc(/C=C\c2cc(OC)c(OC)c(OC)c2)cc1N/C=C\C(=O)c1c[nH]c2ccccc12 | MALME-3M melanoma | 57.8 |
| CC(CC(C#N)(c1ccccc1)c1ccccc1)N1CCOCC1 (centres undefined) | MALME-3M melanoma | 120 |
| N#C[Se]CCCNS(=O)(=O)C1CC2C=CC1C2 (centres undefined) | MALME-3M melanoma | -55.5 |
| COC(=O)C(=[N+]=[N-])C(=O)OC | MALME-3M melanoma | 110 |
| CNC(C)Cc1ccccc1 (centres undefined) (tested in a mixture with another compound) | MALME-3M melanoma | 103 |
| C=CC(=O)NC(O)C(Cl)(Cl)Cl (centres undefined) | MALME-3M melanoma | 85.5 |
| NC(=O)SCC(=O)Nc1ccc([As](=O)(O)O)cc1 | MALME-3M melanoma | 122 |

---

# System: COLO 205 colon
# ASSAY_TEXT: NCI-60 one-dose screen, 48 h (100 = growth as untreated, 0 = no growth, -100 = all killed)
# CONDITION_INFO: 10 µM
About 83,000 compounds went through this panel and 20% of them were active in at least one assay; those are over-represented in the sample as a whole.
PROPERTY_MEASURED: growth (%)

| COMPOUND | READOUT_VALUE |
| --- | --- |
| N#CC(C#N)=Cc1ccc2ccccc2c1 | 110 |
| Oc1ccccc1OB(Oc1ccccc1O)N(CCCl)CCCl | 98.4 |
| C[C@]12CC[C@@H]3c4ccc(OC(=O)Cc5ccc(N(CCCl)CCCl)cc5)cc4CC[C@H]3[C@@H]1CC[C@@H]2OC(=O)Cc1ccc(N(CCCl)CCCl)cc1 | 104 |
| CC12CCC3C(CC=C4CC(O)CCC43C)C1C/C(=C\N1CCOCC1)C2=O (centres undefined) | 116 |
| CN(Cc1cccnc1)N=O | 105 |
| C[C@]12CC[C@@H]3C4=C(CC[C@H]3[C@@H]1CC[C@@H]2O)CC(=O)CC4 | 117 |
| CCOC(=O)Nc1cc(Cl)c([N+](=O)[O-])c(NC(=O)OCC)n1 | 115 |
| CC[C@]12C=CCN3CC[C@@]4(c5ccc(OC)cc5N(C)[C@H]4[C@@](O)(C(=O)OC)[C@@H]1OC(=O)CCCN1CCN(CCCC(=O)O[C@@H]4[C@]5(CC)C=CCN6CC[C@@]7(c8ccc(OC)cc8N(C)[C@H]7[C@@]4(O)C(=O)OC)[C@@H]65)CC1)[C@@H]32 | -79 |
| n1nc(-c2nonc2-c2nn[nH]n2)n[nH]1 | 117 |
| Nc1ccc([N+](=O)[O-])c2c1Oc1ccccc1O2 | 99.3 |
| C[CH2][Pb]([CH2]C)([CH2]C)[O]C(=O)COC | -7.82 |
| CC1(C)N=C(N)N=C(N)N1c1ccc(CNC(=O)Nc2ccc(S(=O)(=O)F)c(Cl)c2)c(Cl)c1 | 37.1 |
| CC(=O)O[C@H]1C[C@H](O[C@H]2[C@@H](O)C[C@H](O[C@H]3[C@@H](O)C[C@H](O[C@H]4CC[C@@]5(C)C(CCC6C5C[C@@H](O)[C@]5(C)[C@@H](C7=CC(=O)OC7)CC[C@]65O)C4)O[C@@H]3C)O[C@@H]2C)O[C@H](C)[C@H]1O[C@@H]1O[C@H](CO)[C@@H](O)[C@H](O)[C@H]1O (some centres undefined) | -74.2 |
| ClCCN(CCCl)c1nc(Cl)c(C2CC(c3ccccc3)=NN2c2ccccc2)s1 (centres undefined) | 95.3 |
| O=[N+]([O-])c1cccc([As]=[As]c2cccc([N+](=O)[O-])c2)c1 (centres undefined) | -81.2 |
| CCC(C)(C)O | 110 |
| ClCCN(CCCl)c1ccc(/C=C\c2ccnc3ccccc23)cc1 | 88.8 |
| Nc1c(Br)cc2c3c(cccc13)-c1ccccc1-2 | 88.2 |
| CCC[CH2][Sn]([CH2]CCC)([CH2]CCC)[O]C(=O)c1ccc(Cl)cc1Cl | -68.8 |
| O=C1NC(=O)C(CN2C(=O)C3(c4ccccc42)[C@H](Cl)C(=O)N3c2ccccc2)C(=O)N1 (some centres undefined) | 102 |
| CC(C)CCC1(CCO)C(=O)NC(=S)NC1=O | 107 |
| O=C(O)CC(Br)C(=O)CBr (centres undefined) | 109 |
| O=C(O)c1cccc(CCl)c1 | 106 |
| CC1(C)N=C(N)N=C(N)N1c1cccc(C(=O)Nc2cccc(S(=O)(=O)F)c2)c1 | 120 |
| O=C(O)CNC(=O)c1ccccc1 | 104 |
| CO[C@@H](c1ccccc1Cl)[C@H](C)OC(N)=O | 101 |
| N#[N+]c1nc2nc(N)[nH]c(=O)c2[nH]1 | 103 |
| C/C(=C\c1cc(C(F)(F)F)n(-c2ccc(N)cc2)n1)[C@@H]1C[C@@H]2O[C@]2(C)CCC[C@H](C)[C@H](O)[C@@H](C)C(=O)C(C)(C)[C@@H](O)CC(=O)O1 | -45 |
| O=C1c2ccccc2C(=O)N1[N+](=O)[O-] | 116 |
| CN1CCN(C(=O)COc2ccc(/C=C3\CC4C5CC=C6CC(Cl)CCC6(C)C5CCC4(C)C3=O)cc2)CC1 (centres undefined) | 60.5 |
| COc1cc(/C=C\c2cc(OC)c(OC)c(OC)c2)cc(N/C=C\C(=O)c2ccc(OC(F)(F)F)cc2)c1OC | 3.12 |
| Cc1cc(C)nc(C)c1.[Cl][Hg][Cl] | 123 |
| Fc1ccc(C2=NN(c3ccccc3)C(c3sc(N(CCCl)CCCl)nc3Cl)C2)cc1 (centres undefined) | 88.6 |
| COc1cc2c(cc1OC)CN(C)C(C)C2 (centres undefined) | 102 |
| O=C(N/N=C/c1ccc([N+](=O)[O-])o1)c1cc([N+](=O)[O-])cc([N+](=O)[O-])c1O | 107 |
| CC1(C)N=C(N)N=C(N)N1c1ccc(CCC(=O)Nc2cccc(S(=O)(=O)F)c2)cc1 | 93.4 |
| Cc1cc(NC(=O)/C=C/c2ccc([N+](=O)[O-])cc2)ccc1S(=O)(=O)F | 102 |
| COc1ccc2c(c1)NC1=C(C(=O)OC1)C2c1cc(OC)c(OC)c(OC)c1 (centres undefined) | -48.5 |
| CC(/C=N/N=C(N)N)=N\N=C(N)N | 55.4 |

Sourced from PubChem BioAssay (NCI)
